# EXPERIMENTAL SYSTEM: LSD1 (Homo sapiens)
pIC50: −log10 of the molar value.
ASSAY READOUT: pIC50

• Cc1c(F)c(N)cc(C(=O)Nc2cc(-n3cc(C(=O)N4CCN(C)CC4)nn3)c(F)cc2N2C[C@@H](C)N(C)[C@@H](C)C2)c1Cl [HYBI-084] = < 6.00

----------
# TEST METHOD NOTES: PK profile of HBI-2375 in plasma, brain and CSF in SD rats
# Assay type: in vivo
# CONDITION DETAILS: male, Sprague-Dawley, rat, brain/plasma, po, 40 mg/kg, SD rats, 40 mg/kg PO, brain/plasma, male; read-out: AUClast Ratio Tissue/Plasma
ASSAY READOUT: Kp

* Cc1c(F)c(N)cc(C(=O)Nc2cc(-n3cc(C(=O)N4CCN(C)CC4)nn3)c(F)cc2N2C[C@@H](C)N(C)[C@@H](C)C2)c1Cl | 1.31

Source: patent US20230293539A1
